Measured activity at 100 µM by item
target: HsDHODH (Homo sapiens); construct: made in house; experiment: Selectivity assay: HsDHODH single-dose inhibition (DCIP reduction); type: biochemical; settings: read-out: Single dose (0h) % activity
Sequence (Q02127 whole entry): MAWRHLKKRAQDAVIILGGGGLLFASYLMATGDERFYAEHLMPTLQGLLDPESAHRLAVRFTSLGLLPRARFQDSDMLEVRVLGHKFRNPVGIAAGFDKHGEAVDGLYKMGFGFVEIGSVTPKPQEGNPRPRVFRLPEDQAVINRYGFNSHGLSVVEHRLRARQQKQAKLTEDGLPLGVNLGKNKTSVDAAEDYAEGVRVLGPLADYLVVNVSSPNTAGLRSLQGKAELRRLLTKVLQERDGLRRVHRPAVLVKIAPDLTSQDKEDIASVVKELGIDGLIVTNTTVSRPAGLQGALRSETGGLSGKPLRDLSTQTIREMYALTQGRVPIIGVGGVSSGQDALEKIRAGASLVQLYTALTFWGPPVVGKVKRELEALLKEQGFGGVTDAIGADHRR

{"columns": ["Smiles Record", "activity at 100 µM"],
 "data": [
  ["O=C1NC(=O)C(=Cc2ccc(N3CCOCC3)cc2[N+](=O)[O-])C(=O)N1", "80%"],
  ["O=C1NC(=O)C(Cc2ccc(-c3ccccc3F)[nH]2)C(=O)N1", "89%"],
  ["O=C1NC(=O)C(Cc2ccc(N3CCOCC3)cc2[N+](=O)[O-])C(=O)N1", "105%"],
  ["O=C1NC(=O)C(Cc2ccccc2)C(=O)N1", "109%"],
  ["O=C1NC(=O)C(=Cc2ccc(C(=O)O)cc2)C(=O)N1", "105%"],
  ["COc1cc(C=C2C(=O)NC(=O)NC2=O)ccc1O", "80%"],
  ["O=C1NC(=O)C(CCCc2ccccc2)C(=O)N1", "99%"],
  ["O=C1NC(=O)C(Cc2ccc(C(=O)O)cc2)C(=O)N1", "92%"],
  ["O=C1NC(=O)C(Cc2cccc(O)c2)C(=O)N1", "87%"],
  ["O=C1NC(=O)C(=Cc2ccc(-c3ccccc3F)[nH]2)C(=O)N1", "100%"],
  ["O=C1NC(=O)C(=Cc2ccccc2)C(=O)N1", "87%"]
]}

###

target: UniProtKB E9AI53; assay: biochemical; settings: 0 h, pH 8.15, read-out: LbDHODH Activity±SD (%)

{"columns": ["Molecule", "Target Under Test", "activity at 400 µM (%)"],
 "data": [
  ["O=C1NC(=O)C(=Cc2ccc(C(=O)O)cc2)C(=O)N1 [2b]", "UniProtKB E9AI53", 86],
  ["O=C1NC(=O)C(=Cc2ccccc2)C(=O)N1 [2a]", "UniProtKB E9AI53", 20],
  ["O=C1NC(=O)C(=Cc2ccc(O)c([N+](=O)[O-])c2)C(=O)N1 [2d]", "UniProtKB E9AI53", 6],
  ["O=C1NC(=O)C(=Cc2cccc(O)c2)C(=O)N1 [2g]", "UniProtKB E9AI53", 21],
  ["COc1cc(C=C2C(=O)NC(=O)NC2=O)ccc1O [2c]", "UniProtKB E9AI53", 6]
]}

###

Measured Kobs by item
biological target: LbDHODH (Leishmania braziliensis, UniProt E9AI53); assay: Kinact/KI determination from LbDHODH progress curves (kobs vs inhibitor concentration); assay type: biochemical; details: inhibitor 6.25 µM
Sequence (E9AI53 entry or part of it): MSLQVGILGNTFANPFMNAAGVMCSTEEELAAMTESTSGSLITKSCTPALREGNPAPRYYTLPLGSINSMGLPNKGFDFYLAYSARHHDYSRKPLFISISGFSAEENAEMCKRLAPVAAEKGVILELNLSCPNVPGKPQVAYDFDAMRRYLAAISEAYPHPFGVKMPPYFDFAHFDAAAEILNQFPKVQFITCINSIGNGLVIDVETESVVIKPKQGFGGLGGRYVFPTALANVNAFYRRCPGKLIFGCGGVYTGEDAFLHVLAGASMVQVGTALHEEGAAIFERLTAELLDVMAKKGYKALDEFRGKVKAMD

{"columns": ["Smiles Record", "Kobs"],
 "data": [
  ["O=C1NC(=O)C(=Cc2ccccc2)C(=O)N1", "0.003415 ± 0.002 s⁻¹"],
  ["O=C1NC(=O)C(=Cc2ccc(O)c([N+](=O)[O-])c2)C(=O)N1", "0.004522 ± 0.002 s⁻¹"],
  ["O=C1NC(=O)C(=Cc2cccc(O)c2)C(=O)N1", "0.003878 ± 0.002 s⁻¹"],
  ["O=C1NC(=O)C(=C/C=C/c2ccccc2)C(=O)N1", "0.007929 ± 0.002 s⁻¹"]
]}

###

molecular target: LbDHODH (Leishmania braziliensis); test: biochemical; conditions: 4 h, pH 8.15, read-out: LbDHODH Activity±SD (%)
Property: activity at 0.195312 µM

{"columns": ["Smiles Record", "Property", "Measurement"],
 "data": [
  ["O=C1NC(=O)C(=Cc2ccc(C(=O)O)cc2)C(=O)N1", "activity at 0.195312 µM", "94%"],
  ["O=C1NC(=O)C(=Cc2ccccc2)C(=O)N1", "activity at 0.195312 µM", "110%"],
  ["O=C1NC(=O)C(=Cc2ccc(-c3ccccc3)cc2)C(=O)N1", "activity at 0.195312 µM", "95.5%"],
  ["O=C1NC(=O)C(=Cc2ccc(N3CCOCC3)cc2[N+](=O)[O-])C(=O)N1", "activity at 0.195312 µM", "104%"],
  ["O=C1NC(=O)C(=C/C=C/c2ccccc2)C(=O)N1", "activity at 0.195312 µM", "68%"]
]}
